The origin of these recorded values is ChEMBL document CHEMBL1158203.

test system: Platelet; test: Inhibition of U46619-induced platelet aggregation in rabbit platelet-rich plasma by turbidimetric method; assay type: functional, cell-free; details: Oryctolagus cuniculus
MEASUREMENT TYPE: pIC50
Scale for pIC50: -log10 of concentration given in mol/L; no unit attached.

Request: Need pIC50, item CCCCCCCCCCCCCCCC(=O)OC[C@@H](O)CO[C@@H]1O[C@H](CO)[C@H](O)[C@H](O)C1O (single isomer, unassigned)
Response: 4.22
